Data origin: patent US12162836B2

PROTOCOL_TEXT: Human Hepatocyte Stability
Assay type: in vitro ADME
CONDITION_PARAMETERS: pooled human hepatocytes, 1 μM, 60 minute incubation
Provide the reported log10 hepatocyte CLint at 1 μM of each item.
Note the log scale: values are log10 of hepatocyte CLint at 1 μM expressed in µL/min/1e6 cells.

Example entries and their recorded answers appear below.
[[record]]
smiles_str = "CC(=O)N1CCC(C2(S(=O)(=O)c3ccc(-c4ccc(F)cc4F)cc3)CC2)CC1"
endpoint_name = "log10 hepatocyte CLint at 1 μM"
endpoint_value = 1.13

[[record]]
smiles_str = "CC(=O)N1CCC(C(C)(C)S(=O)(=O)c2ccc(-c3ccc(F)cc3F)cc2)CC1"
endpoint_name = "log10 hepatocyte CLint at 1 μM"
endpoint_value = 0.58

[[record]]
smiles_str = "CN(C)C(=O)N1CCC(CS(=O)(=O)c2ccc(-c3ccc(F)cc3F)cc2)CC1"
endpoint_name = "log10 hepatocyte CLint at 1 μM"
endpoint_value = 1.45

[[record]]
smiles_str = "CC(=O)N1CCC(C(F)(F)S(=O)(=O)c2ccc(-c3ccc(F)cc3F)cc2)CC1"
endpoint_name = "log10 hepatocyte CLint at 1 μM"
endpoint_value = 1.07

[[record]]
smiles_str = "CC(=O)N1CCC(CS(=O)(=O)c2ccc(-c3ncc(F)cc3F)c(F)c2)CC1"
endpoint_name = "log10 hepatocyte CLint at 1 μM"
endpoint_value = 0.52


The record that follows has no log10 hepatocyte CLint at 1 μM shown yet.
So, CC(=O)N1CCC(CS(=O)(=O)c2ccc(-c3ccc(C(F)(F)F)cc3F)cc2)CC1 ? Its log10 hepatocyte CLint at 1 μM was 0.04
